Catalogue of pIC50 values
# System: A549 cells
# Experiment Description: Cytotoxic activity on human tumour line A549, neutral red, 96 hours
# Format: cell-based
# Condition Set: Homo sapiens, A549, A549; read-out: Cytotox. A549 IC50
Expect pIC50 as a plain number equal to -log10 of the molar concentration.

Example compounds with recorded pIC50:
{"Compound": "Cc1cc(N(C)C)c2cc(Nc3nc(Nc4ccc5nc(C)cc(N(C)C)c5c4)nc(N4CCN(C)CC4)n3)ccc2n1", "pIC50": 6.46}
{"Compound": "COc1ccc(CSc2nc(Nc3ccc4nc(C)cc(N)c4c3)nc(Nc3ccc4nc(C)cc(N)c4c3)n2)cc1", "pIC50": 5.21}
{"Compound": "Cc1cc(N)c2cc(Nc3nc(Nc4ccc5nc(C)cc(N)c5c4)nc(NC4CN5CCC4CC5)n3)ccc2n1 (stereo not shown)", "pIC50": 5.56}

## Task Please provide the recorded pIC50 for Cc1cc(N(C)C)c2cc(Nc3nc(Nc4ccncc4)nc(Nc4ccc5nc(C)cc(N(C)C)c5c4)n3)ccc2n1 , tested on A549 cells.
## Result 5.54

* * *

# Tested on: A549 cells
# Experiment Description: Cytotoxic activity on human tumour line A549, neutral red, 96 hours
# Format: cell-based
# Condition Set: Homo sapiens, A549, A549; read-out: Cytotox. A549 IC50
Catalogue of IC50 values
Express the reported value numerically, then name its unit.

## Task Please provide the recorded IC50 for Cc1cc(N)c2cc(Nc3nc(Nc4ccc5nc(C)cc(N)c5c4)nc(Nc4ccc5nc(C)cc(N)c5c4)n3)ccc2n1 , tested on A549 cells.
## Result 10 µM

## Task Please provide the recorded IC50 for Cc1cc(N)c2cc(Nc3nc(Nc4ccc5nc(C)cc(N)c5c4)nc(Oc4ccccc4Cl)n3)ccc2n1 , tested on A549 cells.
## Result 11.3 µM

## Task Please provide the recorded IC50 for Cc1cc(N(C)C)c2cc(Nc3nc(Nc4ccc5nc(C)cc(N(C)C)c5c4)nc(N4CCN(CCCN(C)C)CC4)n3)ccc2n1 , tested on A549 cells.
## Result 0.026 µM

## Task Please provide the recorded IC50 for Cc1cc(N)c2cc(Nc3nc(Nc4ccc5nc(C)cc(N)c5c4)nc(Sc4ccc5ccccc5n4)n3)ccc2n1 , tested on A549 cells.
## Result 2.86 µM

## Task Please provide the recorded IC50 for Cc1cc(N)c2cc(Nc3nc(Nc4ccc5nc(C)cc(N)c5c4)nc(Nc4ccccn4)n3)ccc2n1 , tested on A549 cells.
## Result 20 µM

* * *

# Test system: human telomerease (HL60 cell extract)
# Experiment Description: Antitelomerease activity: extension of oligonucleotide TS followed by PCR amplification, with HL60 extract
# Type: biochemical
# Condition Set: read-out: TRAP IC50
Catalogue of pIC50 values
Expect pIC50 as a plain number equal to -log10 of the molar concentration.

Example molecules with recorded pIC50:
{"Molecule": "Cc1cc(N(C)C)c2cc(Nc3nc(NCC[N+](C)(C)C)nc(Nc4ccc5nc(C)cc(N(C)C)c5c4)n3)ccc2n1", "Target Or Test System": "human telomerease (HL60 cell extract)", "Assay Endpoint": "pIC50", "Recorded Value": 6.00}
{"Molecule": "Cc1cc(N)c2cc(Nc3nc(Nc4ccc5nc(C)cc(N)c5c4)nc(NC4CN5CCC4CC5)n3)ccc2n1 (stereo not shown)", "Target Or Test System": "human telomerease (HL60 cell extract)", "Assay Endpoint": "pIC50", "Recorded Value": 7.00}
{"Molecule": "CCN(CC)CCN1CCN(c2nc(Nc3ccc4nc(C)cc(N)c4c3)nc(Nc3ccc4nc(C)cc(N)c4c3)n2)CC1", "Target Or Test System": "human telomerease (HL60 cell extract)", "Assay Endpoint": "pIC50", "Recorded Value": 7.00}
{"Molecule": "COCC1CCCN1c1nc(Nc2ccc3nc(C)cc(N(C)C)c3c2)nc(Nc2ccc3nc(C)cc(N(C)C)c3c2)n1 (stereo not shown)", "Target Or Test System": "human telomerease (HL60 cell extract)", "Assay Endpoint": "pIC50", "Recorded Value": 5.96}
{"Molecule": "Cc1cc(N(C)C)c2cc(Nc3nc(Nc4ccc5nc(C)cc(N(C)C)c5c4)nc(N4CCC(O)C4)n3)ccc2n1 (stereo not shown)", "Target Or Test System": "human telomerease (HL60 cell extract)", "Assay Endpoint": "pIC50", "Recorded Value": 5.77}
{"Molecule": "Cc1cc(N)c2cc(Nc3nc(NCCCN(C)C)nc(Nc4ccccc4Cl)n3)ccc2n1", "Target Or Test System": "human telomerease (HL60 cell extract)", "Assay Endpoint": "pIC50", "Recorded Value": 5.46}

// below: pIC50 requested for another molecule
## Task Please provide the recorded pIC50 for Cc1cc(C)nc(Sc2nc(Nc3ccc4nc(C)cc(N)c4c3)nc(Nc3ccc4nc(C)cc(N)c4c3)n2)n1 , tested on human telomerease (HL60 cell extract).
## Result 6.08

* * *

# System: human telomerease (HL60 cell extract)
# Experiment Description: Antitelomerease activity: extension of oligonucleotide TS followed by PCR amplification, with HL60 extract
# Assay type: biochemical
# Condition Set: read-out: TRAP IC50
Catalogue of IC50 values
Use nM as the unit, but write only the number.

Example molecules with recorded IC50:
{"Molecule": "Cc1cc(N(C)C)c2cc(Nc3nc(NCC4CCCN4)nc(Nc4ccc5nc(C)cc(N(C)C)c5c4)n3)ccc2n1 (centres unmarked)", "Target Or Test System": "human telomerease (HL60 cell extract)", "Assay Endpoint": "IC50", "Result Unit": "nM", "Recorded Value": 340}
{"Molecule": "Cc1cc(N)c2cc(Nc3nc(Nc4ccc5nc(C)cc(N)c5c4)nc(Nc4cccc5cn[nH]c45)n3)ccc2n1", "Target Or Test System": "human telomerease (HL60 cell extract)", "Assay Endpoint": "IC50", "Result Unit": "nM", "Recorded Value": 350}
{"Molecule": "Cc1cc(N)c2cc(Nc3nc(Nc4ccc5ccccc5c4)nc(Nc4ccc5nc(C)cc(N)c5c4)n3)ccc2n1", "Target Or Test System": "human telomerease (HL60 cell extract)", "Assay Endpoint": "IC50", "Result Unit": "nM", "Recorded Value": 3600}
{"Molecule": "Cc1cc(N(C)C)c2cc(Nc3nc(NCCN4CCN(Cc5ccccc5)CC4)nc(Nc4ccc5nc(C)cc(N(C)C)c5c4)n3)ccc2n1", "Target Or Test System": "human telomerease (HL60 cell extract)", "Assay Endpoint": "IC50", "Result Unit": "nM", "Recorded Value": 1000}
{"Molecule": "CCN(CCNc1nc(Nc2ccc3nc(C)cc(N(C)C)c3c2)nc(Nc2ccc3nc(C)cc(N(C)C)c3c2)n1)c1cccc(C)c1", "Target Or Test System": "human telomerease (HL60 cell extract)", "Assay Endpoint": "IC50", "Result Unit": "nM", "Recorded Value": 900}
{"Molecule": "Cc1cc(N)c2cc(Nc3nc(Nc4ccc5nc(C)cc(N)c5c4)nc(Oc4ccccn4)n3)ccc2n1", "Target Or Test System": "human telomerease (HL60 cell extract)", "Assay Endpoint": "IC50", "Result Unit": "nM", "Recorded Value": 610}

## Task Please provide the recorded IC50 for Cc1cc(N(C)C)c2cc(Nc3nc(NCc4ccncc4)nc(Nc4ccc5nc(C)cc(N(C)C)c5c4)n3)ccc2n1 [Example 145] , tested on human telomerease (HL60 cell extract).
## Result 1000

## Task Please provide the recorded IC50 for Cc1cc(N)c2cc(Nc3nc(Nc4ccc5nc(C)cc(N)c5c4)nc(Nc4ccc5c6c(cccc46)CC5)n3)ccc2n1 , tested on human telomerease (HL60 cell extract).
## Result 600

* * *

Catalogue of IC50 values
# Test system: A549 cells
# Experiment Description: Cytotoxic activity on human tumour line A549, neutral red, 96 hours
# Assay type: cell-based
# Condition Set: Homo sapiens, A549, A549; read-out: Cytotox. A549 IC50
Use µM as the unit, but write only the number.

{"Molecule": "Cc1cc(N)c2cc(Nc3nc(Nc4ccc5nc(C)cc(N)c5c4)nc(N(Cc4ccccc4)C4CN5CCC4CC5)n3)ccc2n1 (stereo not drawn)", "Assay Endpoint": "IC50", "Result Unit": "µM", "Recorded Value": 7.8}
{"Molecule": "Cc1cc(N(C)C)c2cc(Nc3nc(Nc4ccc5nc(C)cc(N(C)C)c5c4)nc(C4CCN(C)CC4)n3)ccc2n1", "Assay Endpoint": "IC50", "Result Unit": "µM", "Recorded Value": 0.3}

// below: IC50 requested for another molecule
## Task // lookup IC50 for Cc1cc(N)c2cc(Nc3nc(Nc4ccc5nc(C)cc(N)c5c4)nc(N4CCN(C5CCCCCCC5)CC4)n3)ccc2n1
## Result 5.6

* * *

# Tested on: human telomerease (HL60 cell extract)
# Experiment Description: Antitelomerease activity: extension of oligonucleotide TS followed by PCR amplification, with HL60 extract
# Format: biochemical
# Condition Set: read-out: TRAP IC50
Assay Endpoint: pIC50
Expect pIC50 as a plain number equal to -log10 of the molar concentration.

Example compounds with recorded pIC50:
{"Compound": "COc1cccc(Oc2nc(Nc3ccc4nc(C)cc(N)c4c3)nc(Nc3ccc4nc(C)cc(N)c4c3)n2)c1", "Recorded Value": 5.92}
{"Compound": "Cc1cc(N)c2cc(Nc3nc(Nc4ccc5nc(C)cc(N)c5c4)nc(N4CCN(CCO)CC4)n3)ccc2n1", "Recorded Value": 6.70}
{"Compound": "Cc1cc(N)c2cc(Nc3nc(Nc4ccc5nc(C)cc(N)c5c4)nc(N(Cc4ccccc4)C4CN5CCC4CC5)n3)ccc2n1 (stereo not drawn)", "Recorded Value": 6.37}
{"Compound": "Cc1cc(N(C)C)c2cc(Nc3nc(NCCO)nc(Nc4ccc5nc(C)cc(N(C)C)c5c4)n3)ccc2n1", "Recorded Value": 5.96}
{"Compound": "COCCN1CCN(c2nc(Nc3ccc4nc(C)cc(N)c4c3)nc(Nc3ccc4nc(C)cc(N)c4c3)n2)CC1", "Recorded Value": 6.43}

## Task Please provide the recorded pIC50 for Cc1cc(N)c2cc(Nc3nc(Nc4ccncc4)nc(Nc4ccccc4Cl)n3)ccc2n1 , tested on human telomerease (HL60 cell extract).
## Result 5.52

meta.source: patent US6887873B2
